Biological target: DNA topoisomerase II (Homo sapiens) (UniProt P11388+Q02880)
Test: Double strand DNA breakage reflecting stabilization of DNA topoisomerase II intermediate by the compound expressed in terms of ng of DNA/unit of enzyme/mM of drug

[
  {
    "SMILES_STRUCTURE": "COc1cc(OC)cc([C@@H]2c3cc4c(cc3[C@@H](O[C@@H]3O[C@@H]5CO[C@@H](C)O[C@H]5[C@H](O)[C@H]3O)[C@H]3COC(=O)[C@H]23)OCO4)c1",
    "DSB": 27
  },
  {
    "SMILES_STRUCTURE": "C=Cc1c(OC)cc([C@@H]2c3cc4c(cc3[C@@H](O[C@@H]3O[C@@H]5CO[C@@H](C)O[C@H]5[C@H](O)[C@H]3O)[C@H]3COC(=O)[C@H]23)OCO4)cc1OC",
    "DSB": 17
  },
  {
    "SMILES_STRUCTURE": "COc1cc([C@@H]2c3cc4c(cc3[C@@H](O[C@@H]3O[C@@H]5CO[C@@H](c6cccs6)O[C@H]5[C@H](O)[C@H]3O)[C@H]3COC(=O)[C@H]23)OCO4)cc(OC)c1C",
    "DSB": 49
  }
]

Numbers sourced from ChEMBL document CHEMBL1126345.
